Biological target: AurA/Aur2 kinase (h) (Homo sapiens (Human))
Sequence (O14965 whole entry): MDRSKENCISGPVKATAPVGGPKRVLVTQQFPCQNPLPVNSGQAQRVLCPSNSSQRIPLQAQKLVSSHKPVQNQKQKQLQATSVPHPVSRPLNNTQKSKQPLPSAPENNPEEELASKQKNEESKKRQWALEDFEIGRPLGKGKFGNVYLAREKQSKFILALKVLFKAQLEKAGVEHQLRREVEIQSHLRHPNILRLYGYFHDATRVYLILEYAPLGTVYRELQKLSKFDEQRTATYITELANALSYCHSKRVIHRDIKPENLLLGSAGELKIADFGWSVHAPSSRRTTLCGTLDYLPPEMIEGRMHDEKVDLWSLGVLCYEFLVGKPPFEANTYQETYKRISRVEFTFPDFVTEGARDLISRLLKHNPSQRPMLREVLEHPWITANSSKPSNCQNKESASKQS
Experiment: Kinase selectivity panel: AurA/Aur2 kinase (h)
Assay type: biochemical
Settings: 10 μM in duplicate, read-out: % inhibition of control values
Method: (a) Compounds 1 and 2 were tested against a panel of 60 kinases in order to assess their selectivity. The assays were chosen taking into consideration the diversity of assay families. […] Human recombinant kinases were incubated in the presence of specific peptide substrates plus ATP for different times (10, 15, 30, 60 or 90 minutes) at 22° C. Phosphorylated substrate was detected by LANCE or HTRF technology (CISBIO, MA, USA). […]
Record form. Attribute: inhibition at 10 µM. Fill in for each entry.
Report as a plain number; the unit % is understood.

Consider COCCN1CCC(CNC(=O)c2n[nH]c3ccc(OC)cc23)CC1 [Compound 2] . Its measured inhibition at 10 µM is 1

Entry under test: COc1ccc2[nH]nc(C(=O)NCC3CCN(CC(=O)O)CC3)c2c1 [Compound 1] . Its inhibition at 10 µM was 7

# inhibition at 10 µM (compound: COCCN1CCC(CNC(=O)c2n[nH]c3ccc(-c4cccc(F)c4F)cc23)CC1 [Compound 8] ) is 10

What the record says about COc1ccc2[nH]nc(C(=O)NCC3CCN(CCC(=O)O)CC3)c2c1 [Compound 3] : inhibition at 10 µM is 4

====

molecular target: Src kinase (h) (Homo sapiens (Human)); test: Kinase selectivity panel: Src kinase (h); format: biochemical; conditions: 10 μM in duplicate, read-out: % inhibition of control values
Sequence (P12931 whole entry, looked up): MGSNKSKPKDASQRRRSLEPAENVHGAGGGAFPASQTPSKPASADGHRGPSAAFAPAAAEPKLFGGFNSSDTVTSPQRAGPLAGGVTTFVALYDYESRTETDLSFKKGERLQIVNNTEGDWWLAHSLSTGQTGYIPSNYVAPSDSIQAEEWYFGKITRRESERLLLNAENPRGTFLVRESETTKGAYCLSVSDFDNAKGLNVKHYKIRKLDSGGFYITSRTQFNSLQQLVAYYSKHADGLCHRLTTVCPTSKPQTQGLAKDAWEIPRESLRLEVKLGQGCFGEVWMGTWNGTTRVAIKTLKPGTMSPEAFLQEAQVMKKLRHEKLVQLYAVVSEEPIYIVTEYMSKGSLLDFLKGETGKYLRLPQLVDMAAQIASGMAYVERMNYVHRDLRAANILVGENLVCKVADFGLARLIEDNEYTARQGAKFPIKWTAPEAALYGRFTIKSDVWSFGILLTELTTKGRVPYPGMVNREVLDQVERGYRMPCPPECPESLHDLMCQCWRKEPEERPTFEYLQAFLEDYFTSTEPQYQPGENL
measure name: inhibition at 10 µM (%)
# value in %; strip the unit string

Please fill in: inhibition at 10 µM reported for "COc1ccc2[nH]nc(C(=O)NCC3CCN(CC(=O)O)CC3)c2c1" = 1

Entry under test: "COc1ccc2[nH]nc(C(=O)NCC3CCN(CCC(=O)O)CC3)c2c1" . Its inhibition at 10 µM was 0

Consider "COCCN1CCC(CNC(=O)c2n[nH]c3ccc(-c4cccc(F)c4F)cc23)CC1" . Its measured inhibition at 10 µM is 0

Sure, the documented inhibition at 10 µM for "COCCN1CCC(CNC(=O)c2n[nH]c3ccc(OC)cc23)CC1" is 6

Briefly, inhibition at 10 µM measured for "CCc1ccc2[nH]nc(C(=O)NCC3CCN(CC(=O)O)CC3)c2c1" : 9

Item: "O=C(O)CN1CCC(CNC(=O)c2n[nH]c3ccc(-c4cccc(F)c4F)cc23)CC1" | inhibition at 10 µM: 0

====

Please go through the items and note down their inhibition at 10 µM.
target: PAK1 (h) (Homo sapiens (Human), UniProt Q13153); assay: Kinase selectivity panel: PAK1 (h); type: biochemical; details: 10 μM in duplicate, read-out: % inhibition of control values
Sequence (Q13153 whole entry): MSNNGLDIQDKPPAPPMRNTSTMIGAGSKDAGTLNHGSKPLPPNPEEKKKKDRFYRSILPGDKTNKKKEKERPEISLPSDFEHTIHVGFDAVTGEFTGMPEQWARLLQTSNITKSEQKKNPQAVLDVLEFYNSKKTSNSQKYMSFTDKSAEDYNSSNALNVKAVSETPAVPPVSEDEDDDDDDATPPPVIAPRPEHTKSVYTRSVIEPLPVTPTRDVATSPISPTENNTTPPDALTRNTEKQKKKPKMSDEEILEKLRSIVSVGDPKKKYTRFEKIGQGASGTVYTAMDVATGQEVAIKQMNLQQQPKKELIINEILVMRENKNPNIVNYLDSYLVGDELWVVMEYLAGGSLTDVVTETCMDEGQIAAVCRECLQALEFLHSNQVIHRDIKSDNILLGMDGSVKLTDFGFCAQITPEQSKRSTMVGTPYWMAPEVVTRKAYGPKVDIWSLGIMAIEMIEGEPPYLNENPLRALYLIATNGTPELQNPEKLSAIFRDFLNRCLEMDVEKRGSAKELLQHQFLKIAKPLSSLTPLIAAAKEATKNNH
Just the number please, in %, no unit attached.

Entry under test: "COc1ccc2[nH]nc(C(=O)NCC3CCN(CC(=O)O)CC3)c2c1" . Its inhibition at 10 µM was 1

According to the records, this compound "COCCN1CCC(CNC(=O)c2n[nH]c3ccc(OC)cc23)CC1" displays inhibition at 10 µM of 0

Briefly, inhibition at 10 µM measured for "COCCN1CCC(CNC(=O)c2n[nH]c3ccc(-c4cccc(F)c4F)cc23)CC1" : 3

The recorded inhibition at 10 µM for entry "COc1ccc2[nH]nc(C(=O)NCC3CCN(CCC(=O)O)CC3)c2c1" equals 0

====

molecular target: AurB/Aur1 kinase (h) (Homo sapiens (Human)); experiment: Kinase selectivity panel: AurB/Aur1 kinase (h); assay type: biochemical; details: 10 μM in duplicate, read-out: % inhibition of control values
Sequence (Q96GD4 whole entry): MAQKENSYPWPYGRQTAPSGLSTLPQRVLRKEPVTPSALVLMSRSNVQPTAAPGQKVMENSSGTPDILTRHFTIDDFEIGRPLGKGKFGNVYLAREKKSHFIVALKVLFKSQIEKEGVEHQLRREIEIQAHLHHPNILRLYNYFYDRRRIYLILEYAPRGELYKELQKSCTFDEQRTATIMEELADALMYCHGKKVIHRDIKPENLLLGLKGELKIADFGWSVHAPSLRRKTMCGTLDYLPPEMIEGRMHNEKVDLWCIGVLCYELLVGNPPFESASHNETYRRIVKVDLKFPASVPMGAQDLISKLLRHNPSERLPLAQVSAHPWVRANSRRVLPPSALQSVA
I'd appreciate it if you could supply inhibition at 10 µM values for the items below.
Numbers only; they are read as %.

For "COc1ccc2[nH]nc(C(=O)NCC3CCN(CC(=O)O)CC3)c2c1" on AurB/Aur1 kinase (h) (Homo sapiens (Human)), measured inhibition at 10 µM was 0

Record "COCCN1CCC(CNC(=O)c2n[nH]c3ccc(OC)cc23)CC1" has AurB/Aur1 kinase (h) (Homo sapiens (Human)) inhibition at 10 µM equal to 6

Query "COc1ccc2[nH]nc(C(=O)NCC3CCN(CCC(=O)O)CC3)c2c1" on AurB/Aur1 kinase (h) (Homo sapiens (Human)); inhibition at 10 µM returned: 0

// assay AurB/Aur1 kinase (h) (Homo sapiens (Human)), entry "COCCN1CCC(CNC(=O)c2n[nH]c3ccc(-c4cccc(F)c4F)cc23)CC1" , inhibition at 10 µM value = 0

====

biological target: CDK5/p35 (h) (Homo sapiens (Human), UniProt Q00535); assay: Kinase selectivity panel: CDK5/p35 (h); type: biochemical; conditions: 10 μM in duplicate, read-out: % inhibition of control values
Sequence (Q00535 whole entry): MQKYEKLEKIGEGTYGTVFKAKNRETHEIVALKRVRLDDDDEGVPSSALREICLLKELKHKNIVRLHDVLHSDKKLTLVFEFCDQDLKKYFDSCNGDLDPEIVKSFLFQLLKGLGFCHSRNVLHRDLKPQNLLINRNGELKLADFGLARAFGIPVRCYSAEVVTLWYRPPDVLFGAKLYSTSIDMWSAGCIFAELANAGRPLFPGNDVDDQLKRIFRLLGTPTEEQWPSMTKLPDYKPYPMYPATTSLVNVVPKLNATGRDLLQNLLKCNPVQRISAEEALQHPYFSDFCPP
Sequence (Q15078 whole entry partner): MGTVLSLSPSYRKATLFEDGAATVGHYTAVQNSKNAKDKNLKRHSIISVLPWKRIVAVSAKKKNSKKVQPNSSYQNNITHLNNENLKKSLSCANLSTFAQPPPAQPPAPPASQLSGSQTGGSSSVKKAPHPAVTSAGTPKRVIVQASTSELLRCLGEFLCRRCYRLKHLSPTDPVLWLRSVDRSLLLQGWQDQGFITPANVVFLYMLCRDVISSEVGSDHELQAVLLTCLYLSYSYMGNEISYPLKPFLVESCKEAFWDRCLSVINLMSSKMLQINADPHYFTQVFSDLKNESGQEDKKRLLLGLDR
Field: label. Allowed values: Yes (inhibition at 10 µM < 10%) or No (inhibition at 10 µM >= 10%).

Is inhibition at 10 µM of "COc1ccc2[nH]nc(C(=O)NCC3CCN(CCC(=O)O)CC3)c2c1" strictly below 10%?
Yes

Check if inhibition at 10 µM falls below 10% for "COCCN1CCC(CNC(=O)c2n[nH]c3ccc(-c4cccc(F)c4F)cc23)CC1" .
No

Lab note: inhibition at 10 µM threshold 10%. Does this molecule come in strictly under it? "O=C(O)CN1CCC(CNC(=O)c2n[nH]c3ccc(-c4cccc(F)c4F)cc23)CC1"
No

Field: below-cutoff. Rule: recorded inhibition at 10 µM strictly less than 10%. Subject: "CCc1ccc2[nH]nc(C(=O)NCC3CCN(CC(=O)O)CC3)c2c1"
No

# check: inhibition at 10 µM < 10% for "COc1ccc2[nH]nc(C(=O)NCC3CCN(CC(=O)O)CC3)c2c1"
No

API: query returns whether the molecule falls strictly under 10% in inhibition at 10 µM. Query: "COCCN1CCC(CNC(=O)c2n[nH]c3ccc(OC)cc23)CC1"
No

====

biological target: RSK2 (h) (Homo sapiens (Human)); experiment: Kinase selectivity panel: RSK2 (h); type: biochemical; conditions: 10 μM in duplicate, read-out: % inhibition of control values
Sequence (P51812 whole entry): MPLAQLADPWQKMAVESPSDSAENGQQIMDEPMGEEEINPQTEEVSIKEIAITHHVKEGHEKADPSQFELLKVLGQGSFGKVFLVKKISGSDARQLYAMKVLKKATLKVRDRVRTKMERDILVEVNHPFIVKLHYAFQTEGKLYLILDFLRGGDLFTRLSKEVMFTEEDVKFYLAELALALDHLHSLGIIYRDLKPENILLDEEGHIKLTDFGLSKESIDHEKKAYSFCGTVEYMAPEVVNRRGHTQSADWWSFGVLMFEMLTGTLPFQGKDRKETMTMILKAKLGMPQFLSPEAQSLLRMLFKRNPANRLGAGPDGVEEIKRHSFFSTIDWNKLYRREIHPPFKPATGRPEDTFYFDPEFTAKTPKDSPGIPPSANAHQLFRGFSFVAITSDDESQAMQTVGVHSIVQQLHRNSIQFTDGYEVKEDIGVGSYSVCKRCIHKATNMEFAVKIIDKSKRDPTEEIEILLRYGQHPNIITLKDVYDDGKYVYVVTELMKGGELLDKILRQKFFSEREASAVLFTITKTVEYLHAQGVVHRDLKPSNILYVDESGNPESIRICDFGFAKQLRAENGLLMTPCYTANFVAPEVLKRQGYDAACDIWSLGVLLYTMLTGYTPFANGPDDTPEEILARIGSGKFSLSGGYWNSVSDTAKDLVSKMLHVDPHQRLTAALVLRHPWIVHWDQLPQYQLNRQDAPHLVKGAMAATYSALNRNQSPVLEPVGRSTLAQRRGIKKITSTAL
measure name: inhibition at 10 µM (%)
Write the answer as a number in %, unit excluded.

Kindly note the recorded inhibition at 10 µM for COCCN1CCC(CNC(=O)c2n[nH]c3ccc(OC)cc23)CC1 [Compound 2] , which is 1

GET /value?item= COCCN1CCC(CNC(=O)c2n[nH]c3ccc(-c4cccc(F)c4F)cc23)CC1 [Compound 8] &field=inhibition at 10 µM returns 4

Record COc1ccc2[nH]nc(C(=O)NCC3CCN(CC(=O)O)CC3)c2c1 [Compound 1] . Reported inhibition at 10 µM: 0

Notebook: COc1ccc2[nH]nc(C(=O)NCC3CCN(CCC(=O)O)CC3)c2c1 [Compound 3] , inhibition at 10 µM read as 4

====

target: DAPK1 (h) (Homo sapiens (Human), UniProt P53355); test: Kinase selectivity panel: DAPK1 (h); type: biochemical; settings: 10 μM in duplicate, read-out: % inhibition of control values
Sequence (P53355 whole entry): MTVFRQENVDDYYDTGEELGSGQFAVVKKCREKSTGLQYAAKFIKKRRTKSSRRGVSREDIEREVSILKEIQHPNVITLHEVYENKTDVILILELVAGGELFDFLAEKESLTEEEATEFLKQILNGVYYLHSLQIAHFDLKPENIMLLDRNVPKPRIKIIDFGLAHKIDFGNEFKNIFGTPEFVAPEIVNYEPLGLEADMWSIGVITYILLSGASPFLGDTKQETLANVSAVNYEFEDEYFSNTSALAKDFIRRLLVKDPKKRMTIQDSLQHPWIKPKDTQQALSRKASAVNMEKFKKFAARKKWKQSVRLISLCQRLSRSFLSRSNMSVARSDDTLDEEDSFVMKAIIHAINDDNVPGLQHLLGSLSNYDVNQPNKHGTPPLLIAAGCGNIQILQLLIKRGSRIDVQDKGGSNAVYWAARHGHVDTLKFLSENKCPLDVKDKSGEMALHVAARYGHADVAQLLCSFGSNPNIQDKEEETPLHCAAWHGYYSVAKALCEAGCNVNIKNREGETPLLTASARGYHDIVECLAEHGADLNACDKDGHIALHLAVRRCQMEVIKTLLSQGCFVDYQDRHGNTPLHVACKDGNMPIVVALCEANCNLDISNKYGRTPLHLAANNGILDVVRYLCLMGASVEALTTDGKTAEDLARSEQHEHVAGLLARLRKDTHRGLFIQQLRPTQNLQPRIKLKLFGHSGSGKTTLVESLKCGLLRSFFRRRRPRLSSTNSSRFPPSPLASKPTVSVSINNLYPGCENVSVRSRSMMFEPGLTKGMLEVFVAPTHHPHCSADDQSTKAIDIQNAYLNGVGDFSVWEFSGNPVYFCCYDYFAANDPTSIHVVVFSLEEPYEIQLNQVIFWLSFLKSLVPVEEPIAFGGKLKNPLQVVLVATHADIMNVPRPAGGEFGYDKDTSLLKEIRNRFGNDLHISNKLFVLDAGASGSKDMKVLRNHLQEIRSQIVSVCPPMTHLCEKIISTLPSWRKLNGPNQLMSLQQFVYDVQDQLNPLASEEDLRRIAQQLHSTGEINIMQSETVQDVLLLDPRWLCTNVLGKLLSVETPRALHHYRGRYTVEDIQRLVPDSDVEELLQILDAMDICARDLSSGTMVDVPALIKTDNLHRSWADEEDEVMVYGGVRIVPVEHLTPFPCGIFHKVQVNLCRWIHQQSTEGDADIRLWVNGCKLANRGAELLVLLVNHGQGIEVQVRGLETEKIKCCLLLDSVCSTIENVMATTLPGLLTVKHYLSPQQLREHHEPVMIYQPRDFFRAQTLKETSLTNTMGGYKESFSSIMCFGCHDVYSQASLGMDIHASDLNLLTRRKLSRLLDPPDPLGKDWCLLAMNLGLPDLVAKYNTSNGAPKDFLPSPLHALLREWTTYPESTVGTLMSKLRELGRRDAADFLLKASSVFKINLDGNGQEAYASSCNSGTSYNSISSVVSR
measure name: inhibition at 10 µM (%)
Unit % implied. Number only.

// sample "COc1ccc2[nH]nc(C(=O)NCC3CCN(CCC(=O)O)CC3)c2c1" , its inhibition at 10 µM was 3

Looking up "COCCN1CCC(CNC(=O)c2n[nH]c3ccc(-c4cccc(F)c4F)cc23)CC1" , I see its inhibition at 10 µM listed as 47

# inhibition at 10 µM (compound: "COc1ccc2[nH]nc(C(=O)NCC3CCN(CC(=O)O)CC3)c2c1" ) is 22

For "COCCN1CCC(CNC(=O)c2n[nH]c3ccc(OC)cc23)CC1" the compound record lists inhibition at 10 µM as 12

====

molecular target: ERK2 (h) (P42mapk) (Homo sapiens (Human), UniProt P28482); experiment: Kinase selectivity panel: ERK2 (h) (P42mapk); format: biochemical; details: 10 μM in duplicate, read-out: % inhibition of control values
Sequence (P28482 whole entry): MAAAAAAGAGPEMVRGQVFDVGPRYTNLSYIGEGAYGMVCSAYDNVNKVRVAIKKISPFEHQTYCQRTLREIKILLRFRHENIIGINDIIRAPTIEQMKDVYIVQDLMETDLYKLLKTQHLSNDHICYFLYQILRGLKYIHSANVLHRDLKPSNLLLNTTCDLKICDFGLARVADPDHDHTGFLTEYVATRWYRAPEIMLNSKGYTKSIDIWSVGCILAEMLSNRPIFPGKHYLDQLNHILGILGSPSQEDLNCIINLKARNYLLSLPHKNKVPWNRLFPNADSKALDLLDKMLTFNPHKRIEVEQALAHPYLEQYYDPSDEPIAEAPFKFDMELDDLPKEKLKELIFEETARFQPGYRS
measure name: inhibition at 10 µM (%)
Please state the figure in %; there is no need to write the unit.

// sample "COCCN1CCC(CNC(=O)c2n[nH]c3ccc(OC)cc23)CC1" , its inhibition at 10 µM was 46

response.value for "COc1ccc2[nH]nc(C(=O)NCC3CCN(CCC(=O)O)CC3)c2c1" (field: inhibition at 10 µM) = 34

For this molecule ( "O=C(O)CN1CCC(CNC(=O)c2n[nH]c3ccc(-c4cccc(F)c4F)cc23)CC1" ), measured inhibition at 10 µM is 67

So for "COc1ccc2[nH]nc(C(=O)NCC3CCN(CC(=O)O)CC3)c2c1" , the logged inhibition at 10 µM turned out to be 58

The reported value for "CCc1ccc2[nH]nc(C(=O)NCC3CCN(CC(=O)O)CC3)c2c1" in terms of inhibition at 10 µM is 9

Sample "COCCN1CCC(CNC(=O)c2n[nH]c3ccc(-c4cccc(F)c4F)cc23)CC1" ; inhibition at 10 µM observed: 74

Recorded values, source patent US9611249B2.
